- SYSTEM_NAME: VEGF165 (recombinant human vascular endothelial growth factor, 165 aa form) (Homo sapiens, UniProt P15692-4 P15692-4:27-191)
- Sequence (P15692 other isoform, or with tags, fused parts or gaps): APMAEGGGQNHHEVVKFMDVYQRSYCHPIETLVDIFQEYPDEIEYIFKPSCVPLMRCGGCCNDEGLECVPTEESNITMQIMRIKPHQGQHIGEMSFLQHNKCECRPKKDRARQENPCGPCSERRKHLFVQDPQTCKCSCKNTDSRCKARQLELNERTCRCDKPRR
- ASSAY_TEXT: filter; clone listed in families 1 and 2
- CONDITION_CONTEXT: tags: gift from N. Ferrara, Genentech; chain copies: 2 (dimer, stated)

| BINDER | Kd |
| --- | --- |
| ssDNA b81 (ssDNA) DNA: CTACCTACGATCTGACTAGCCCGAATGGGGCTGCGACTGCAGTGGACGTCACGTCGTTAGCTTACTCTCATGTAGTTCCT | 0.3 nM |
